System: XIP peptide (Xip251-270)
protocol-text: compounds binding XIP fragment 251-270 – biochemical, small-molecule microarray, fluorescence 635/667 nm, 0.5 µg/mL protein, primary screen (AID 1183)
condition-details: fluorescence 635 nm, higher = more signal
Rule: composite z-score under 0.6 gives 0, otherwise 1.

{"columns": ["compound", "discrete-label"],
 "data": [
  ["CN1C(=O)C2C=CC(C(O)C3CCCCC3)N(N(c3ccccc3)c3ccccc3)C2C1=O (stereo not drawn)", 1],
  ["CC1CC/C=C\\[C@H]2OC34C=CCN(Cc5ccccc5)C(=O)[C@H]3N(CCO)C(=O)[C@@H]4C2C(=O)O1 (stereo partly drawn)", 0],
  ["C#CCNS(=O)(=O)N(C)C", 0],
  ["NC(=O)NCC#Cc1ccc2c(c1)[C@]1(C(=O)N2)[C@H](c2ccc(O)cc2)N2[C@H](c3ccccc3)[C@H](c3ccccc3)OC(=O)[C@H]2[C@@H]1C(=O)NC[C@H](O)c1ccccc1", 0],
  ["Cc1ccc(N2C(=O)c3ccccc3[C@](C)(C(=O)NC(C)C)[C@@H]2c2ccc(CO)cc2)nc1", 1],
  ["CCCCC(O)C1C=CC2C(=O)N(Cc3ccccc3)C(=O)C2N1n1cnnc1 (stereo not drawn)", 1],
  ["COCCOC(=O)N1C(=O)[C@@]2(c3cc(C#CCCO)ccc31)[C@H](C(=O)NC[C@H](O)c1ccccc1)[C@H]1C(=O)O[C@H](c3ccccc3)[C@H](c3ccccc3)N1[C@@H]2c1ccccc1OCCO", 0],
  ["COCCCNC(=O)[C@]1(Cc2ccccc2)N=C(c2ccc(OCCCO)cc2)O[C@@H]1c1ccccc1N=[N+]=[N-]", 0],
  ["COCCOC(=O)N1C(=O)[C@@]2(c3cc(C#CCCO)ccc31)[C@H](c1ccc(OCCO)cc1)N1[C@H](c3ccccc3)[C@H](c3ccccc3)OC(=O)[C@H]1[C@@H]2C(=O)N1CCc2cc(OC)c(OC)cc2C1", 1],
  ["CC(C)CNC(=O)[C@@]1(c2ccc([N+](=O)[O-])cc2)CC(=O)N(C(C)C)[C@@H]1c1ccc(CO)cc1", 0],
  ["C[N+](C)(C)CCCCNC(=O)[C@H]1C[C@H]2C(=O)NCC(=O)N2[C@H]1c1ccc(O)cc1", 1],
  ["C=C(CCCC)/C(=C/C[C@H](OC(=O)c1ccncc1)c1ccc(CO)o1)c1cc(C(=O)OC)ccc1OC", 1],
  ["COC(=O)C(CC#Cc1ccc2c(c1)[C@]1(C(=O)N2)[C@H](c2ccc(O)cc2)N2[C@H](c3ccccc3)[C@H](c3ccccc3)OC(=O)[C@H]2[C@@H]1C(=O)O)C(=O)OC", 1]
]}

----------
test-target: Follistatin (Homo sapiens) (UniProt P19883)
Sequence (P19883 whole entry, looked up): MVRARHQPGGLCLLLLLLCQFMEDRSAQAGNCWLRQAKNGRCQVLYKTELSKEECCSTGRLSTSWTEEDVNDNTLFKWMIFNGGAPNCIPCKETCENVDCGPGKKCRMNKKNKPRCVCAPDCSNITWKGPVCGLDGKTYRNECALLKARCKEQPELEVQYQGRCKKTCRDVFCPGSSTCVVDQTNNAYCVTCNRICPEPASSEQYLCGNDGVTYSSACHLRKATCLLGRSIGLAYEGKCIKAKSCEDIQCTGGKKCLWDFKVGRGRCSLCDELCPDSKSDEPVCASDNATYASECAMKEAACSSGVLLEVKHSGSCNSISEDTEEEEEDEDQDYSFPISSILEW
protocol-text: FST protein binding to printed compounds – biochemical, small-molecule microarray, 635/667 nm fluorescence, primary screen (AID 1132)
condition-details: 635 nm fluorescence, higher = more signal
measured-endpoint: composite z-score

{"columns": ["cpd-smiles", "measured-endpoint", "value"],
 "data": [
  ["Cc1ccc(S[C@]2(C(=O)NCc3ccccc3)CC(=O)N(C3Cc4ccccc4C3)[C@@H]2c2ccc(CO)cc2I)cc1", "composite z-score", -0.328],
  ["C[N+](C)(C)CCCCCCNC(=O)[C@@H]1C[C@@H]2C(=O)NCC(=O)N2[C@@H]1c1cccc(OCCO)c1", "composite z-score", 1.38],
  ["CCCC=C(CCC)[C@@H](NC(=O)Cc1ccccc1)c1ccc(C(=O)OC)cc1", "composite z-score", 0.28],
  ["CO[C@H]1O[C@H](CO)[C@@H](OC(=O)c2ccc(Br)cc2)[C@@H]2OC(=O)[C@H](Cc3cccc(Br)c3)C/C=C/C[C@@H](Cc3cccc(Br)c3)C(=O)O[C@@H]12", "composite z-score", 1.02]
]}

----------
# z-score per entry
protocol-text: compound effects on multiple myeloma cell viability – MM1S, calcein-AM fluorescence, 48 h, basal, profiling panel (AID 1165);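 also: viability of MM1S multiple myeloma cells under basal unstimulated conditions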
condition-details: higher = more signal

{"columns": ["molecule", "z-score"],
 "data": [
  ["CCCc1cc2c(n1Cc1ccc(OC)cc1)C(C)C1CN(C(=O)c3ccccc3)C(C)(C(=O)OC)C21 (centres undefined)", -2.74],
  ["COc1ccc([Si](C)(C)[C@@H]2[C@@H](CC(=O)N(CCO)Cc3ccccc3)O[C@]3(C(=O)N(Cc4ccc(N5CCOC5=O)cc4)c4ccccc43)[C@H]2C)cc1", -2.35],
  ["COc1ccc([Si](C)(C)[C@@H]2[C@@H](CC(=O)N(CCO)Cc3ccccc3)O[C@]3(C(=O)N(C)c4c(Br)cc(C)cc43)[C@H]2C)cc1", -2.75],
  ["CO[C@H]1O[C@H](CO)[C@@H](OC(=O)c2ccc(Br)cc2)[C@@H]2OC(=O)[C@H](Cc3cccc(Br)c3)C/C=C/C[C@@H](Cc3cccc(Br)c3)C(=O)O[C@@H]12", -1.82]
]}

----------
// reported z-score for each item listed
protocol-text: viability profiling in MM1S myeloma cells – cell-based, resazurin fluorescence, basal, 24 h, PK04 Diversity Set, profiling panel (AID 1174)
condition-details: higher = more signal, called active from +8 up or from −8 down

{"columns": ["compound", "z-score"],
 "data": [
  ["CC(C)N1C(=O)c2ccccc2[C@](C)(C(=O)O)[C@@H]1c1ccc(CO)cc1", -0.0713],
  ["COc1cc2c(cc1OC)CN(C(=O)[C@@H]1[C@H]3C(=O)O[C@H](c4ccccc4)[C@H](c4ccccc4)N3[C@H](c3ccc(O)cc3)[C@@]13C(=O)Nc1ccc(C#CCNC(N)=O)cc13)CC2", 0.602],
  ["C=C(CCCC)/C(=C/C[C@H](OC(=O)c1ccncc1)c1ccc(CO)o1)c1cc(C(=O)OC)ccc1OC", -2.13],
  ["COC(=O)c1c(CC[C@@H](CO)NC(=O)N[C@@H](C)Cn2cc(C3(O)CCCC3)nn2)oc(C(C)=O)c1C(=O)OC", -0.345],
  ["O=C1O[C@H](c2ccccc2)[C@H](c2ccccc2)N2[C@H]1[C@@H](C(=O)N1CCN(c3ncccn3)CC1)[C@]1(C(=O)Nc3ccc(C#CCCO)cc31)[C@H]2c1ccc(OCCO)cc1", -0.901],
  ["O=C1CSC(c2cccc([N+](=O)[O-])c2)N1c1ccccc1 (configuration not stated)", -0.0906],
  ["O=C(O)[C@@]1(Cc2ccccc2)COC(c2ccc(OCCCO)cc2)=N1", 0.296],
  ["CCOC(=O)C[C@H]1[C@H](OC(=O)c2ccc(C(=O)c3ccccc3)cc2)[C@@H](NC(=O)C2CCCCC2)c2cc(OCCCO)ccc2N1C(=O)Cc1ccc(OC)cc1", -0.28],
  ["COC(=O)[C@@]1(Cc2ccc(OC)cc2)[C@H]2c3cc(C(=O)N(C)C)n(Cc4cc(F)c(F)c(F)c4)c3C[C@H]2CN1C(=O)c1ccccc1", -2.61],
  ["COC(=O)[C@]1(Cc2ccccc2CN=[N+]=[N-])N=C(c2ccc(OCCCO)cc2)O[C@@H]1c1ccccc1", -4.5],
  ["COCCCNC(=O)[C@@H]1c2ccccc2C(=O)N(Cc2cc(F)cc(C(F)(F)F)c2)[C@H]1c1ccc(CO)cc1", -0.522],
  ["CC1CC/C=C\\[C@H]2OC34C=CCN(Cc5ccccc5)C(=O)[C@H]3N(CCO)C(=O)[C@@H]4C2C(=O)O1 (some centres not stated)", 0.32]
]}

----------
protocol-text: probe aLefty1 binding on compound microarray – biochemical, small-molecule microarray, 635/667 nm fluorescence, primary screen (AID 1153);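 also: score merges spot fluorescence with signal-to-noise ratio from the scanned slide images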
condition-details: higher = more signal
Reported composite z-score values follow for various compounds

{"columns": ["compound", "composite z-score"],
 "data": [
  ["CCCC=C(CCC)[C@@H](NS(=O)(=O)c1cccc2cccnc12)c1ccc(C(=O)OC)cc1", 0.968],
  ["COC(=O)[C@@]1(Cc2ccc(OC)cc2)[C@H]2c3cc(C(=O)N(C)C)n(Cc4cc(F)c(F)c(F)c4)c3C[C@H]2CN1C(=O)c1ccccc1", 0.946],
  ["Cc1ccc(S[C@]2(C(=O)NCc3ccccc3)CC(=O)N(C3Cc4ccccc4C3)[C@@H]2c2ccc(CO)cc2I)cc1", 0.0049],
  ["CC(C)N1C(=O)c2ccccc2[C@](C)(C(=O)O)[C@@H]1c1ccc(CO)cc1", 0.0451],
  ["Cc1ccc(N2C(=O)c3ccccc3[C@](C)(C(=O)NC(C)C)[C@@H]2c2ccc(CO)cc2)nc1", -0.275],
  ["CC(C)N1CC=CC23O[C@@H]4C=CCOC(=O)[C@@H]4[C@H]2C(=O)N(CCCCCCO)[C@@H]3C1=O (stereo partly specified)", -0.184]
]}

----------
System: Fibrinogen (Alexa647-labelled)
protocol-text: Alexa647-fibrinogen binding to printed small molecules – biochemical, small-molecule microarray, 635/667 nm fluorescence, artefact control for SMM control-protein annotation, profiling panel (AID 1131);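 also: z-score merges 667 nm fluorescence with per-spot signal-to-noise over triplicate slides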
condition-details: fibrinogen-A647 binding fluorescence, higher = more signal
Output 1 for composite z-score not less than 0.9; output 0 otherwise.

{"columns": ["cpd-smiles", "discrete-label"],
 "data": [
  ["CCCC=C(CCC)[C@@H](NC(=O)Cc1ccccc1)c1ccc(C(=O)OC)cc1", 0],
  ["C=C(/C(=C/C[C@@H](OC(C)=O)c1ccccc1OCCO)c1cnc2ccccc2c1)C(C)C", 0],
  ["COCCOC(=O)N1C(=O)[C@@]2(c3cc(C#CCNC(N)=O)ccc31)[C@H](c1ccc(OCCO)cc1)N1[C@H](c3ccccc3)[C@H](c3ccccc3)OC(=O)[C@H]1[C@@H]2C(=O)N1CCN(c2ncccn2)CC1", 0],
  ["CC(C)(C)OC(=O)CC[C@@]1(C(=O)N2CCCCC2)N=C(c2ccc(OCCCO)cc2)O[C@@H]1c1ccccc1N=[N+]=[N-]", 1]
]}
